Provide the reported AC50 of each item.

Request: AC50, test system Adenosine receptor A1 (Homo sapiens, UniProt P30542), entry CN[C@@H](C)[C@H](O)c1ccccc1; note: assay procedure not described here
> 30 µM

Request: AC50, test system Adenosine receptor A1 (Homo sapiens, UniProt P30542), entry CC(C)(C(=O)c1cccnc1)c1cccnc1; note: assay procedure not described here
> 10 µM

Request: AC50, test system Adenosine receptor A1 (Homo sapiens, UniProt P30542), entry OCc1cc([C@@H](O)CNCCCCCCOCCOCc2c(Cl)cccc2Cl)ccc1O; note: assay procedure not described here
> 30 µM

Request: AC50, test system Adenosine receptor A1 (Homo sapiens, UniProt P30542), entry Cc1ccc(-c2nc3ccc(C)cn3c2CC(=O)N(C)C)cc1; note: assay procedure not described here
> 30 µM

Request: AC50, test system Adenosine receptor A1 (Homo sapiens, UniProt P30542), entry CN1CCC2=C(C1)C(c1ccccc1)c1ccccc12 (centres undefined); note: assay procedure not described here
> 10 µM

Request: AC50, test system Adenosine receptor A1 (Homo sapiens, UniProt P30542), entry CN1CC(=O)N2[C@H](c3ccc4c(c3)OCO4)c3[nH]c4ccccc4c3C[C@@H]2C1=O; note: assay procedure not described here
> 30 µM

Request: AC50, test system Adenosine receptor A1 (Homo sapiens, UniProt P30542), entry CN(C)C(=O)OC1N=C(c2ccccc2)c2cc(Cl)ccc2N(C)C1=O (centres undefined); note: assay procedure not described here
> 30 µM

Request: AC50, test system Adenosine receptor A1 (Homo sapiens, UniProt P30542), entry NC(N)=Nc1nc(CSCCC(N)=NS(N)(=O)=O)cs1; note: assay procedure not described here
> 30 µM

Request: AC50, test system Adenosine receptor A1 (Homo sapiens, UniProt P30542), entry CN1C(=O)COc2c(C(=O)NC3CN4CCC3CC4)cc(Cl)cc21 (centres undefined); note: assay procedure not described here
> 30 µM

Request: AC50, test system Adenosine receptor A1 (Homo sapiens, UniProt P30542), entry O=C(CCCCC(=O)Nc1c(I)cc(I)c(C(=O)O)c1I)Nc1c(I)cc(I)c(C(=O)O)c1I [IODIPAMIDE]; note: assay procedure not described here
> 10 µM

Request: AC50, test system Adenosine receptor A1 (Homo sapiens, UniProt P30542), entry CCCS(=O)(=O)Nc1ccc(F)c(C(=O)c2c[nH]c3ncc(-c4ccc(Cl)cc4)cc23)c1F; note: assay procedure not described here
> 30 µM

Request: AC50, test system Adenosine receptor A1 (Homo sapiens, UniProt P30542), entry O=C1NCCN1CCN1CCC(c2cn(-c3ccc(F)cc3)c3ccc(Cl)cc23)CC1; note: assay procedure not described here
> 30 µM

Request: AC50, test system Adenosine receptor A1 (Homo sapiens, UniProt P30542), entry CCOC(=O)[C@H](CCc1ccccc1)N[C@H]1CCCN2CCC[C@@H](C(=O)O)N2C1=O; note: assay procedure not described here
> 30 µM

Request: AC50, test system Adenosine receptor A1 (Homo sapiens, UniProt P30542), entry C#CC1(OC(N)=O)CCCCC1 [ETHINAMATE]; note: assay procedure not described here
> 10 µM

Request: AC50, test system Adenosine receptor A1 (Homo sapiens, UniProt P30542), entry CCCOc1ccc(C(=O)OCCN(CC)CC)cc1N; note: assay procedure not described here
> 30 µM

Request: AC50, test system Adenosine receptor A1 (Homo sapiens, UniProt P30542), entry C[N+](C)(C)CC(=O)O; note: assay procedure not described here
> 30 µM

Request: AC50, test system Adenosine receptor A1 (Homo sapiens, UniProt P30542), entry N[C@@H](CSCC(=O)O)C(=O)O; note: assay procedure not described here
> 30 µM

Request: AC50, test system Adenosine receptor A1 (Homo sapiens, UniProt P30542), entry Cc1c(C(=O)Nc2ccc(N3C[C@@H](C)O[C@@H](C)C3)nc2)cccc1-c1ccc(OC(F)(F)F)cc1; note: assay procedure not described here
> 30 µM

Request: AC50, test system Adenosine receptor A1 (Homo sapiens, UniProt P30542), entry O=C(Cn1ccnc1[N+](=O)[O-])NCc1ccccc1; note: assay procedure not described here
> 30 µM

====

target: Adenosine receptor A2a (Homo sapiens); note: assay procedure not described here
Sequence (P29274 whole entry): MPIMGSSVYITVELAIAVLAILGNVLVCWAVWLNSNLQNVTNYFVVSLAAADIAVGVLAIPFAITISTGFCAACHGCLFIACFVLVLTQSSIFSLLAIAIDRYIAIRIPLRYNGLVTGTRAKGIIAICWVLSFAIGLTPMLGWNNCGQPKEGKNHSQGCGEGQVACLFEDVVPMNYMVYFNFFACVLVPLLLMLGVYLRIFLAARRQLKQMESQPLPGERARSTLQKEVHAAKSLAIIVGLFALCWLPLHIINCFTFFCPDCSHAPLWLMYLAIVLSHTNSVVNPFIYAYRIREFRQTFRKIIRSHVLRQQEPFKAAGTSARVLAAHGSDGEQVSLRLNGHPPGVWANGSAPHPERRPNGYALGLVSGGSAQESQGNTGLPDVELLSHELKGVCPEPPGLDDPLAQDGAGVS
Measured Parameter: AC50

# query: AC50 of entry NC(CO)C(=O)NNCc1ccc(O)c(O)c1O (centres undefined) [BENSERAZIDE]
> 30 µM

# query: AC50 of entry COc1ccc2c(c1)c(CC(=O)OCC(=O)O)c(C)n2C(=O)c1ccc(Cl)cc1
> 30 µM

# query: AC50 of entry CN1CCC2=C(C1)C(c1ccccc1)c1ccccc12 (centres undefined)
> 10 µM

# query: AC50 of entry COc1c(C)c2c(c(O)c1C/C=C(\C)CCC(=O)OCCN1CCOCC1)C(=O)OC2 [MYCOPHENOLATE MOFETIL]
> 30 µM

# query: AC50 of entry Cc1ccc(-c2nc3ccc(C)cn3c2CC(=O)N(C)C)cc1
> 30 µM

# query: AC50 of entry NC(=O)C[S+]([O-])C(c1ccccc1)c1ccccc1 (centres undefined)
> 30 µM

# query: AC50 of entry CN1CC[C@]23CCCC[C@H]2[C@H]1Cc1ccc(O)cc13
> 10 µM

# query: AC50 of entry COc1ccc(C(=O)NCc2ccc(OCCN(C)C)cc2)cc1OC [ITOPRIDE]
> 30 µM

# query: AC50 of entry COc1ccc(C(=O)N2CCN(c3ccc4c(c3)CCC(=O)N4)CC2)cc1OC
> 30 µM

# query: AC50 of entry CN1C(=O)CC(=O)N(c2ccccc2)c2cc(Cl)ccc21
> 10 µM

# query: AC50 of entry CC(C(=O)O)c1ccc(C(=O)c2cccs2)cc1 (centres undefined)
> 10 µM

# query: AC50 of entry OCc1cc([C@@H](O)CNCCCCCCOCCOCc2c(Cl)cccc2Cl)ccc1O
> 30 µM

# query: AC50 of entry C=C1CC[C@@]2(O)[C@H]3Cc4ccc(O)c5c4[C@@]2(CCN3CC2CC2)[C@H]1O5
> 30 µM

# query: AC50 of entry O=C(O)CCCc1ccccc1
> 10 µM

# query: AC50 of entry Cc1c(O)c(=O)ccn1C
> 30 µM

# query: AC50 of entry CCCCC(C)(O)C/C=C/[C@H]1[C@H](O)CC(=O)[C@@H]1CCCCCCC(=O)OC (some centres undefined)
> 30 µM

# query: AC50 of entry Cc1cc(-c2ccccc2)nnc1NCCN1CCOCC1
> 30 µM

# query: AC50 of entry CCc1ccc(CCOc2ccc(CC3SC(=O)NC3=O)cc2)nc1 (centres undefined)
> 30 µM

# query: AC50 of entry COC(=O)[C@H]1[C@@H](OC(=O)c2ccccc2)C[C@@H]2CC[C@H]1N2C
> 30 µM

# query: AC50 of entry N[C@@H](CSCC(=O)O)C(=O)O
> 30 µM

# query: AC50 of entry CN1C(=O)CC(c2ccccc2)C1=O (centres undefined) [PHENSUXIMIDE]
> 10 µM

# query: AC50 of entry O=C(C[S+]([O-])C(c1ccccc1)c1ccccc1)NO (centres undefined)
> 30 µM

# query: AC50 of entry O=C1CN=C(c2ccccc2)c2cc(Cl)ccc2N1CC(F)(F)F
> 30 µM

# query: AC50 of entry NS(=O)(=O)c1cc2c(cc1Cl)NCNS2(=O)=O [HYDROCHLOROTHIAZIDE]
> 30 µM

# query: AC50 of entry CC(C)NNC(=O)c1ccncc1
> 30 µM

# query: AC50 of entry CCN(CC)CCNC(=O)c1cc(Cl)c(N)cc1OC [METOCLOPRAMIDE]
> 30 µM

# query: AC50 of entry CCCOc1ccc(C(=O)OCCN(CC)CC)cc1N
> 30 µM

# query: AC50 of entry COc1ccc2c(c1)C(=O)N(CCc1ccc(S(=O)(=O)NC(=O)NC3CCCCC3)cc1)C(=O)C2(C)C
> 30 µM

# query: AC50 of entry CCCCCN(C)CCC(O)(P(=O)(O)O)P(=O)(O)O
> 30 µM

# query: AC50 of entry C[C@H]1C[C@@H]2[C@H]([C@@H](O)C[C@@]3(C)[C@H]2CC[C@]3(O)C(=O)COC(=O)CCC(=O)O)[C@@]2(C)C=CC(=O)C=C12 [METHYLPREDNISOLONE HEMISUCCINATE]
> 30 µM

# query: AC50 of entry C[C@@H]1O[C@@H]1P(=O)(O)O
> 10 µM

# query: AC50 of entry CC(C)[N+](C)(CCC(C(N)=O)(c1ccccc1)c1ccccc1)C(C)C [ISOPROPAMIDE]
> 10 µM

# query: AC50 of entry Nc1nc2ccc(OC(F)(F)F)cc2s1
> 30 µM

# query: AC50 of entry C#CCN(C)[C@H](C)Cc1ccccc1
> 10 µM

# query: AC50 of entry NC[C@H]1CC[C@H](C(=O)O)CC1
> 10 µM

# query: AC50 of entry CC(=O)NS(=O)(=O)c1ccc(N)cc1 [SULFACETAMIDE]
> 10 µM

# query: AC50 of entry COC(=O)[C@@H]1CC2=CC(=O)CC[C@]2(C)[C@@]23O[C@@H]2C[C@@]2(C)[C@@H](CC[C@@]24CCC(=O)O4)[C@H]13
> 30 µM

# query: AC50 of entry Nc1nc(N)c2nc(-c3ccccc3)c(N)nc2n1
> 30 µM

# query: AC50 of entry C1=Cc2cccc(OCC3CNCCO3)c2C1 (centres undefined)
> 30 µM
